# System: Yellow fever virus (17D)
# method: microbe, parasite or virus in culture
# Type: cell-based
# protocol-conditions: Yellow fever virus, Huh-7, read-out: Antiviral activity EC50
experimental-readout: pEC50
Lab note — pEC50 values are minus log10 of concentrations in M.

Prompt: Find the recorded pEC50 belonging to CCC(CC)COC(=O)[C@H](C)N[P@](=O)(OC[C@H]1O[C@@](C#N)(c2ccc3c(N)ncnn23)[C@H](O)[C@@H]1O)Oc1ccccc1 and report it.
Response: 6.74

---

# method: Cytotoxicity, CellTiter-Glo, 72 h (OC43 protocol)
# protocol-conditions: human, Huh-7 cells
experimental-readout: CC50 at 72 h (µM)
Answer in µM, number only, no unit symbol.

Prompt: Would you kindly share the measured CC50 at 72 h for CCC(CC)COC(=O)[C@H](C)N[P@](=O)(OC[C@H]1O[C@@](C#N)(c2ccc3c(N)ncnn23)[C@H](O)[C@@H]1O)Oc1ccccc1 ?
Response: 18.9
